Numbers sourced from patent US20200147235A1.

Listing of recorded kon by entry.
Molecular target: T1, Human CD98 ECD with N-terminal His-tag (human, UniProt P08195 105-529)
T1 construct: The entry includes the linker and the polyhistidine tag; also called huCD98 ECD
T1 sequence: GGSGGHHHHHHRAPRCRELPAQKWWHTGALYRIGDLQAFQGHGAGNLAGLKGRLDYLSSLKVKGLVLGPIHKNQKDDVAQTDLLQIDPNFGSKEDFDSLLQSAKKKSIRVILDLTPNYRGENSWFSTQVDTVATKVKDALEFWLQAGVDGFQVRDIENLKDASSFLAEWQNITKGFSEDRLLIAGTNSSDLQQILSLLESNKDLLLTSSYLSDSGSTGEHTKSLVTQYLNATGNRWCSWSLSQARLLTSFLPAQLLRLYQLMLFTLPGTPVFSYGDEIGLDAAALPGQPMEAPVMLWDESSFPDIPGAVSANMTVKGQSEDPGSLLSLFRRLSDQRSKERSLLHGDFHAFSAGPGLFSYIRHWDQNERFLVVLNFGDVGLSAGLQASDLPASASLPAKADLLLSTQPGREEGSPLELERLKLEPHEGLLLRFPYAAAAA
Assay: SPR (Biacore), recombinant CD98 ECD
# number only, unit M⁻¹ s⁻¹ dropped from output

For orientation, consider the following solved cases.
BINDER: huAb109 (antibody, V domains shown, Framework re-engineered humanized clone (parent huAb15v6), expressed as full-length IgG) VH: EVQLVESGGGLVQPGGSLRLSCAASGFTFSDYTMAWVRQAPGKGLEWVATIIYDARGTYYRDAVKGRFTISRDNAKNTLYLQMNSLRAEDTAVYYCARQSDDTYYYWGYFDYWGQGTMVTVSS VL: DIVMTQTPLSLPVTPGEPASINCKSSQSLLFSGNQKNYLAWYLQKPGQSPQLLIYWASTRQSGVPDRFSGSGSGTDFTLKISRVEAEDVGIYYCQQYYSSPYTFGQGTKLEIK
UNIT ABBREVIATION: M⁻¹ s⁻¹
VALUE REPORTED: 160000
//
BINDER: huAb110 (antibody, human IgG1, kappa, L234A L235A, V domains shown, Framework re-engineered humanized clone (parent huAb15v6); also called CL-huAb110) VH: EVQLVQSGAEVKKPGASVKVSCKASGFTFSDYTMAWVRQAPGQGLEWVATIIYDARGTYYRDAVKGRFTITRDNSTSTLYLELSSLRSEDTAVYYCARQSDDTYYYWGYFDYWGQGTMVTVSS VL: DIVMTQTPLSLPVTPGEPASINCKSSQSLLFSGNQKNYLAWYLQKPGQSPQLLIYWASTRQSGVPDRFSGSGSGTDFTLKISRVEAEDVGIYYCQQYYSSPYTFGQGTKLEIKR
UNIT ABBREVIATION: M⁻¹ s⁻¹
VALUE REPORTED: 130000
//
BINDER: huAb104 (antibody, human IgG1, kappa, L234A L235A, V domains shown, Framework re-engineered humanized clone (parent huAb3v2); also called CL-huAb104) VH: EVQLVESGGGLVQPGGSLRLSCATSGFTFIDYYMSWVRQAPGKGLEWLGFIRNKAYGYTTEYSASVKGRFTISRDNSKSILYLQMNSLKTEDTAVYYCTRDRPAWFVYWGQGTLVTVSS VL: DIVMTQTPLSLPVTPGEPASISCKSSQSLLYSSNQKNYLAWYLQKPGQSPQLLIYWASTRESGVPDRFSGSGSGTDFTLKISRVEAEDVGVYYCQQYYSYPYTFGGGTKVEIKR
UNIT ABBREVIATION: M⁻¹ s⁻¹
VALUE REPORTED: 450000
//
BINDER: huAb105 (antibody, V domains shown, Framework re-engineered humanized clone (parent huAb15v1), expressed as full-length IgG) VH: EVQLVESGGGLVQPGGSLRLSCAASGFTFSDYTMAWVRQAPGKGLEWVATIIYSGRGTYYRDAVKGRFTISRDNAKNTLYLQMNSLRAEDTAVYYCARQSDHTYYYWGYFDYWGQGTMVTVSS VL: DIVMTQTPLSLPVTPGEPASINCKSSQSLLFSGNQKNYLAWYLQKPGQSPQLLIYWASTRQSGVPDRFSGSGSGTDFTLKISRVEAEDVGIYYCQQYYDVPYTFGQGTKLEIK
UNIT ABBREVIATION: M⁻¹ s⁻¹
VALUE REPORTED: 140000

Query block: Recorded kon of huAb106 (antibody, V domains shown, Framework re-engineered humanized clone (parent huAb15v1), expressed as full-length IgG) VH: EVQLVQSGAEVKKPGASVKVSCKASGFTFSDYTMAWVRQAPGQGLEWVATIIYSGRGTYYRDAVKGRFTITRDNSTSTLYLELSSLRSEDTAVYYCARQSDHTYYYWGYFDYWGQGTMVTVSS VL: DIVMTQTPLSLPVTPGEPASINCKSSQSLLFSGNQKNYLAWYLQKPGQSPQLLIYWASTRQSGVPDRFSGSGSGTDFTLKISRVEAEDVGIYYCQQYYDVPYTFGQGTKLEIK , please.
Result block: 140000

Query block: Recorded kon of huAb103 (antibody, V domains shown, Framework re-engineered humanized clone (parent huAb3v2), expressed as full-length IgG; also called haAb103) VH: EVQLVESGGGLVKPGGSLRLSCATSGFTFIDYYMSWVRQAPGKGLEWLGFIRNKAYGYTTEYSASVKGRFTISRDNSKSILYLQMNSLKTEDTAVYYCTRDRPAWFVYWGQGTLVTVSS VL: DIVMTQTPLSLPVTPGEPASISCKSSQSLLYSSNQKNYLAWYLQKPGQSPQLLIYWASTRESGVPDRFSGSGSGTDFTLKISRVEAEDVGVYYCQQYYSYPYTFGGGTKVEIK , please.
Result block: 180000
